Each recorded value in this set is attributed to patent US12358932B2.

Tested on: JAK
Assay: Biochemical Kinase Assay Protocol (JAK)
Details: compound list; + = noted target activity, number of * = preference
REPORTED_ENDPOINT: Activity Note: JAK

COMPOUND	RESULT
CCC(CC)Nc1nc(Nc2cc(Cl)c3c(c2)COB3O)ncc1C	JAK+***
CCC(CC)Nc1nc(Nc2ccc3c(c2)B(O)OC3)ncc1C	JAK+*
Cc1cnc(Nc2ccc3c(c2)C(C)(C)OB3O)nc1NC1CCCC1	JAK+***
Cc1cnc(Nc2cc(C)c3c(c2)COB3O)nc1NC1CCCC1	JAK+***
CC1(C)OB(O)c2ccc(Nc3ncc(Cl)c(NC4CCCC4)n3)cc21	JAK+***

### Prompt Value wanted: Activity Note: JAK (JAK) of entry "Cc1cnc(Nc2cc3c(c(C(F)(F)F)c2)B(O)OC3)nc1Nc1ccccc1"
### Response JAK+***

### Prompt Please provide the recorded Activity Note: JAK for "CC1(C)OB(O)c2c(Cl)cc(Nc3ncc(Cl)c(NC4CCCC4)n3)cc21" , tested on JAK.
### Response JAK+***

### Prompt Hi! What's the reported Activity Note: JAK for "Cc1cnc(Nc2ccc3c(c2)B(O)OC3)nc1N[C@H]1CC[C@H](CO)CC1" on JAK?
### Response JAK+*
